Test system: CAKI-1
Assay: NCI tumour cell line growth inhibition, 48 h
Calls of active or inactive are those of the source. No stated cut-off is given here; in the data, active = GI50 up to about 1.1 µM and inactive = higher.
assay_endpoint: GI50

Some solved cases for reference:
{"molecule": "Nc1nc(Cl)nc(NCc2ccccc2)n1", "result": "> 100 µM (inactive)"}
{"molecule": "O=c1[nH]c2cc([N+](=O)[O-])c(N/N=C/c3ccc(Cl)cc3Cl)c([N+](=O)[O-])c2[nH]1", "result": "> 100 µM (inactive)"}
{"molecule": "N#Cc1c2ccccc2cn1-c1ccc(F)cc1", "result": "33 µM (inactive)"}
{"molecule": "COC(=O)C(/C(=N/NC(=O)c1ccncc1)C(=O)Nc1ccccc1OC)c1nc2ccc(Cl)cc2nc1O (stereo not given)", "result": "> 100 µM (inactive)"}

Here is another molecule to look at.
I'm curious: which GI50 was measured for COc1cccc(NC(=O)/C(Cc2nc3ccccc3nc2C)=N/NC(=O)C[n+]2ccccc2)c1 tested on CAKI-1?
> 100 µM (inactive)

---

Tested on: A498
Test: NCI tumour cell line growth inhibition, 48 h
Activity calls are given as the source filed them. Cut-off read from the data, not from the text of the source: active = GI50 up to about 1.1 µM and inactive = higher.
Give one outcome, nothing more. List: active, inactive

Solved cases below.
{"molecule": "N#CCN1c2ccccc2CCC1Cl (centres undefined)", "qualitative_label": "inactive"}
{"molecule": "Oc1ccc(-c2c3ccccc3c(-c3ccc(OCCBr)cc3)c3ccccc23)cc1", "qualitative_label": "inactive"}
{"molecule": "CSc1ncnc2c1ncn2CCC(=O)OC(C)(C)C", "qualitative_label": "inactive"}
{"molecule": "COc1ccccc1[C@@H]1CCC2CC[C@@H](c3ccccc3OC)[N+]21Cc1ccccc1 (some centres undefined)", "qualitative_label": "inactive"}
{"molecule": "CC1(O)CC(C(F)(F)F)(C(F)(F)F)OC1=O (centres undefined)", "qualitative_label": "inactive"}

What outcome does the record of this test show for CC(=O)c1cc2c(Br)cccc2oc1=O ?
inactive

Outcome logged for O=c1c2c(no[n+]2[O-])c2ccccc2n1-c1ccccc1 in this assay:
inactive

---

Tested on: SK-MEL-5
Test: NCI tumour cell line growth inhibition, 48 h
The source made the active and inactive calls. No stated cut-off is given here; in the data, active = GI50 up to about 1.1 µM and inactive = higher.
Result category, one only: active, inactive

These recorded examples may help you get a feel for the data.
{"molecule": "C[C@@H](CO)C1=CC(C#C[Si](C)(C)C)N(C(=O)Oc2ccccc2)c2ccccc21 (some centres undefined)", "qualitative_label": "inactive"}
{"molecule": "CC1(C)CCC[C@]2(C)[C@@H]1CC[C@@]13O[C@@H]1C1=C(CO)C(=O)O[C@]14O[C@@H]4[C@@H]23", "qualitative_label": "inactive"}
{"molecule": "CNC(=S)Nc1sc2c(c1C#N)CCCC2", "qualitative_label": "inactive"}
{"molecule": "O=C(CN1c2ccccc2Sc2ccccc21)N1CCNCC1", "qualitative_label": "inactive"}
{"molecule": "Nc1nc(-[n+]2ccc(-c3ccncc3)cc2)nc(Cl)c1Cl", "qualitative_label": "inactive"}

Test call for this molecule, please: COc1cc(CCNC2=CC(=O)c3nc[nH]c3C2=O)ccc1O
inactive

What did the test return for CC1=CCC(=O)[C@]2(C)C(CC(=O)O)[C@]3(C)C4=C(C)C(c5ccoc5)C[C@@H]4O[C@@H]3[C@H](O)[C@@H]12 (some centres undefined) ?
inactive

Outcome logged for OC(CC(O)(C(F)(F)Cl)C(F)(F)Cl)c1ccccc1 (centres undefined) in this assay:
active

Would you mind telling me which call this test gave O=CC(O)C(O)C(O)C(O)COC(=O)NCCCCC(=O)C(F)(F)C(F)(F)C(F)(F)C(F)(F)C(F)(F)C(F)(F)C(F)(F)F (centres undefined) ?
inactive
